B1: TPR t1 (parent)
chain: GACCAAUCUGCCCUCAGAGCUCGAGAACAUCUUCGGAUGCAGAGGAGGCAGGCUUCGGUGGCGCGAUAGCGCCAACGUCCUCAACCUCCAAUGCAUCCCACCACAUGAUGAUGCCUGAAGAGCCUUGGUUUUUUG

- Variants of: B1
- Test method notes: polymerase ribozyme fitness, log enrichment relative to wild type (log ratio); higher = more active; in vitro selection for triplet polymerase activity
Overview of reported polymerase ribozyme fitness (log ratio) across a group of variants:

U7A C15A A41C A66C    -4.5
G48U A50U A68G C89G U106A U116C C124U    -5.48
G107A C114G G128A    -7.24

Please report the recorded polymerase ribozyme fitness (log ratio) for G48A G69U C123U .
0.885

Please report the recorded polymerase ribozyme fitness (log ratio) for G48U G60U G61A A83G U129G .
-3.05

Please report the recorded polymerase ribozyme fitness (log ratio) for G17U G69U A84C .
0.342

Please report the recorded polymerase ribozyme fitness (log ratio) for U9G C62G C82A .
-0.591

Please report the recorded polymerase ribozyme fitness (log ratio) for C4U G69C .
-2.05

Please report the recorded polymerase ribozyme fitness (log ratio) for C3A C28U G57A G69U C82U .
-3.79

Please report the recorded polymerase ribozyme fitness (log ratio) for C13U A74C .
0.251

Please report the recorded polymerase ribozyme fitness (log ratio) for C64U C98U .
-0.89
